Below are Kd values recorded for Btk (Homo sapiens, UniProt Q06187).
measuredQuantity: Kd (nM)

INSERT INTO assay_data (molecule, measurementtarget, reportedvalue) VALUES
  ('COc1cc2ncnc(Nc3ccc(Oc4ccccc4)cc3)c2cc1NC(=O)/C=C/CN(C)C [Compound 27]', 'Btk (Homo sapiens, UniProt Q06187)', 2.2),
  ('C=CC(=O)Nc1cc2c(Nc3ccc(Oc4ccccc4)cc3)ncnc2cc1OC [Compound 36]', 'Btk (Homo sapiens, UniProt Q06187)', 2.3);

Values were extracted from patent US9550738B2.
